Test system: P388 leukemia ip, CD2F1 mice, survival T/C
Assay: NCI In Vivo Anticancer Drug Screen. Data for tumor model P388 Leukemia (intraperitoneal) in CD2F1 (CDF1) mice
Settings: endpoint: median survival time; dose: 100.0 mg/kg/injection; schedule: Q01DX009 (ip); vehicle: saline; higher = longer survival
Inconclusive results and toxic doses are left out.

# molecule, T/C
measured = [
    ("O=C(CC(=O)C(F)(F)F)c1cccs1.O=C(CC(=O)C(F)(F)F)c1cccs1.O=C(CC(=O)C(F)(F)F)c1cccs1.[Gd]", "96 % of control"),
    ("Oc1cc2c(cc1O)CN1CCc3cc(O)c(O)cc3C1C2 (stereo not given)", "114 % of control"),
    ("CC1C2C=CC1C=C2 (stereo not given)", "91 % of control"),
    ("CC(C)(C)CC(C)(C)c1ccc(O)cc1", "100 % of control"),
    ("S=P(C1CCCCC1)(C1CCCCC1)C(c1cccnc1)N1CCCC1 (stereo not given)", "94 % of control"),
    ("CCN(CC)c1ccc(/C=C(\\C#N)C(N)=S)cc1", "101 % of control"),
    ("CCOC(=O)c1c[nH]c2cc3ccccc3cc2c1=O", "107 % of control"),
    ("Cc1cc(C)n(/C(N)=N/[N+](=O)[O-])n1", "105 % of control"),
    ("Nc1ccc2c(c1)Cc1cc(NC=O)ccc1-2", "91 % of control"),
    ("CCCCCC(CN(C)C)C(=O)/C=C/c1ccc(O)cc1 (stereo not given)", "113 % of control"),
    ("CCCC1OC(C)(Cc2ccccc2)OCC1CC (stereo not given)", "103 % of control"),
    ("CCNC(=O)Nc1ccc(Cl)cn1", "105 % of control"),
    ("CC(=O)Nc1ccc2c(c1)Cc1cccc(NC(C)=O)c1-2", "110 % of control"),
    ("Nc1cc(=O)nc2cn[nH]n12", "101 % of control"),
    ("CCN(C/C=C/CN(CC)C(=S)Nc1ccccc1)C(=S)Nc1ccccc1", "108 % of control"),
    ("OC(CBr)C(O)C(O)C(O)CBr (stereo not given)", "123 % of control"),
    ("CCC(C(=O)O)C(=O)O.[NH-]CC1CCCC[N-]1.[Pt+2]", "252 % of control"),
    ("O=C(CCl)N/N=C/c1ccccc1", "95 % of control"),
    ("CCCCCCCCCCCCCCCC(=O)OCC(COP(=O)(O)OCC(COC(=O)CCCCCCCCCCCCCCC)OC(=O)CCCCCCCCCCCCCCC)OC(=O)CCCCCCCCCCCCCCC (stereo not given)", "100 % of control"),
    ("CCN(CC)CCOC(=O)c1ccc(N)cc1", "100 % of control"),
]
